SYSTEM NAME: Histamine H2 receptor (Homo sapiens, UniProt P25021)
Sequence (P25021 whole entry): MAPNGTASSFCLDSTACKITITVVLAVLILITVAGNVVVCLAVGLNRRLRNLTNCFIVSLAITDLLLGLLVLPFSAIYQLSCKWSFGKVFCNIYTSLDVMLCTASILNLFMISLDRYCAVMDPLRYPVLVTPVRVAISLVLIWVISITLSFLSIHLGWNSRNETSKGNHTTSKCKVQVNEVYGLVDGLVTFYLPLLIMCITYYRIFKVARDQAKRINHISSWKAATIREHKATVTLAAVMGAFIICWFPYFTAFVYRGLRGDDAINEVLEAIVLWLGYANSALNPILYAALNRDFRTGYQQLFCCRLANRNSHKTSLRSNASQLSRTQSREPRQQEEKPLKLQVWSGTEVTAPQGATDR
EXPERIMENTAL DETAILS: Agonist activity at human histamine H2 receptor stably expressed in HEK293T cells co-expressing ARRB2 incubated for 60 mins by beta-arrestin2 recruitment assay
Assay type: functional, cell-based
ENDPOINT LABEL: log10 of EC50 (log10 of the value in µM)
Hi team, quick reminder: these entries are log10 of EC50 (µM).

1) CCCCCNC(=O)/N=C(\N)NCCCc1cnc(N)s1.O=C(O)C(F)(F)F.O=C(O)C(F)(F)F: -1.25
2) CC(CNC(=O)/N=C(\N)NCCCc1nnc(N)s1)C1CCCCC1 (stereo not given): -0.87
3) N/C(=N\C(=O)NCc1ccccc1)NCCCc1cnc(N)s1: -1.31

I need log10 of EC50 for every entry listed below, if you could help.
1. CCCCCNC(=O)/N=C(\N)NCCCc1nnc(N)s1.O=C(O)C(F)(F)F.O=C(O)C(F)(F)F
2. C[C@@H](NC(=O)/N=C(\N)NCCCc1nnc(N)s1)c1ccccc1
3. CCCCCCNC(=O)/N=C(\N)NCCCc1nnc(N)s1
4. N/C(=N\C(=O)NCCCCCCNC(=O)/N=C(\N)NCCCc1nnc(N)s1)NCCCc1nnc(N)s1
5. C[C@@H](NC(=O)/N=C(\N)NCCCc1ncn[nH]1)c1ccccc1
6. CC(NC(=O)/N=C(\N)NCCCc1nnc(N)s1)c1cccc(F)c1 (stereo not given)
7. Cc1ccc(CC(C)CNC(=O)/N=C(\N)NCCCc2cnc(N)s2)cc1 (stereo not given)

1: -0.63; 2: -0.55; 3: 0.03; 4: -0.39; 5: -0.49; 6: -1.12; 7: -0.63

* * *

Would you mind telling me the reported log10 of EC50 of each entry?
SYSTEM NAME: Histamine H2 receptor (Homo sapiens)
EXPERIMENTAL DETAILS: Agonist activity at human histamine H2 receptor stably expressed in HEK293T cells co-expressing NlucN-mGs/hH2R-NlucC assessed as induction of mini-Gs protein recruitment using furimazine as substrate measured for 45 mins by luminescence assay
Recorded EC50 (log10, nM)

Below: 5 molecules and their reported log10 of EC50.
1) C[C@@H](NC(=O)/N=C(\N)NCCCc1nnc(N)s1)c1ccccc1: 1.30
2) CCCCCCNC(=O)/N=C(\N)NCCCc1nnc(N)s1: 0.78
3) Cc1ccc(CC(C)CNC(=O)/N=C(\N)NCCCc2cnc(N)s2)cc1 (stereo unspecified): 1.89
4) N/C(=N\C(=O)NCc1ccccc1)NCCCc1cnc(N)s1: 0.69
5) CCCCCNC(=O)/N=C(\N)NCCCc1nnc(N)s1.O=C(O)C(F)(F)F.O=C(O)C(F)(F)F: 0.76

For every record below, what is its log10 of EC50?
1. CC(NC(=O)/N=C(\N)NCCCc1nnc(N)s1)c1cccc(F)c1 (stereo unspecified)
2. C[C@@H](NC(=O)/N=C(\N)NCCCc1ncn[nH]1)c1ccccc1
3. N/C(=N\C(=O)NCCCCCCNC(=O)/N=C(\N)NCCCc1nnc(N)s1)NCCCc1nnc(N)s1
4. CCCN[C@H]1CCc2nc(N)sc2C1 [PRAMIPEXOLE]
5. CCCCCNC(=O)/N=C(\N)NCCCc1cnc(N)s1.O=C(O)C(F)(F)F.O=C(O)C(F)(F)F
6. CC(CNC(=O)/N=C(\N)NCCCc1nnc(N)s1)C1CCCCC1 (stereo unspecified)

1: 0.91; 2: 1.41; 3: 1.30; 4: 2.22; 5: 0.78; 6: 1.03

* * *

SYSTEM NAME: Histamine H2 receptor (Cavia porcellus, UniProt P47747)
Sequence (P47747 whole entry): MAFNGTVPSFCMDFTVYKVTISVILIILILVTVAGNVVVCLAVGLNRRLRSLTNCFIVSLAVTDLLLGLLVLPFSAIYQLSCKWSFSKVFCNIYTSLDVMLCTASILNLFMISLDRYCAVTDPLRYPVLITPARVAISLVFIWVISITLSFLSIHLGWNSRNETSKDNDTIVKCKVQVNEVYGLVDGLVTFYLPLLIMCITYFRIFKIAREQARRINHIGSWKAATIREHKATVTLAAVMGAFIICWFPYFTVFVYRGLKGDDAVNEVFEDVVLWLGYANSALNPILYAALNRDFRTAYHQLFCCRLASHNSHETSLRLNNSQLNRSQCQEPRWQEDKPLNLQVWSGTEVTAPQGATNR
EXPERIMENTAL DETAILS: Agonist activity at guinea pig histamine H2 receptor stably transfected in HEK293T cells co-expressing NlucN-mGs/gpH2R-NlucC by mini-G protein recruitment assay
Format: functional, cell-based
pEC50: −log10 of the molar value.
Answer NOT MET if pEC50 is under 8, and MET if it is 8 or more.

# example entries with known answers
1) N/C(=N\C(=O)NCc1ccccc1)NCCCc1nnc(N)s1: MET
2) C[C@@H](NC(=O)/N=C(\N)NCCCc1nnc(N)s1)c1ccccc1: NOT MET
3) CCCCCCNC(=O)/N=C(\N)NCCCc1nnc(N)s1: MET

# next compound below
Quick check: does `CCCCCNC(=O)/N=C(\N)NCCCc1nnc(N)s1.O=C(O)C(F)(F)F.O=C(O)C(F)(F)F` have pEC50 greater than or equal to 8? MET

* * *

So I've got a bunch of molecules here, and I need their Ki values.
SYSTEM NAME: Histamine H3 receptor (Homo sapiens)
EXPERIMENTAL DETAILS: Displacement of [3H]UR-PI294 from human histamine H3 receptor stably expressed in baculovirus infected Sf9 cell membrane co-expressing G-alphai2 and G-beta1gamma2 incubated for 60 mins by scintillation counting analysis
Assay type: cell membranes
Answers are plain numbers, in µM.

1. Cc1nc(N)sc1-c1ccc(N/C(N)=N/C(=O)NCCCCCCNC(=O)/N=C(\N)Nc2ccc(-c3sc(N)nc3C)cc2)cc1: 1.95

Give Ki for each of the items listed below.
1. Cc1ccc(CC(C)CNC(=O)/N=C(\N)Nc2cccc(-c3sc(N)nc3C)c2)cc1 (centres undefined)
2. Cc1nc(N)sc1-c1ccc(N/C(N)=N/C(=O)NCC(C)CCCc2ccccc2)cc1 (centres undefined)

1: 12.9; 2: 7.94

* * *

Target sequence: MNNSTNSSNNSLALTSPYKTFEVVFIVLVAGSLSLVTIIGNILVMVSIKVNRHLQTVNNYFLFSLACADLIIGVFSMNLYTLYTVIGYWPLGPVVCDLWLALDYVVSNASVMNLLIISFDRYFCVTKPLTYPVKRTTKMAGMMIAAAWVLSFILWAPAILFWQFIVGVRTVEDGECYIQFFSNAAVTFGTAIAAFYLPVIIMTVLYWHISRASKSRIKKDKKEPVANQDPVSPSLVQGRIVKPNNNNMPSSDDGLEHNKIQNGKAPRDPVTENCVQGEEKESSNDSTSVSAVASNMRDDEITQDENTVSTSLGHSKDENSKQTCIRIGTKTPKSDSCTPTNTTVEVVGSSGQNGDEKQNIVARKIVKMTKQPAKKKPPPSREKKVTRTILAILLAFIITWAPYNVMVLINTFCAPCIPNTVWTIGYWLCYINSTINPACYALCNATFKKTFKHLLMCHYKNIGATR
ENDPOINT LABEL: pKd
One number for each entry, as −log10 of the molar value.

1. C[C@@H](NC(=O)/N=C(\N)NCCCc1ncn[nH]1)c1ccccc1: 10.00
2. N/C(=N\C(=O)NCc1ccccc1)NCCCc1nnc(N)s1: 10.00

Now for a further compound.
What value of measured pKd is listed for `CCCCCNC(=O)/N=C(\N)NCCCc1nnc(N)s1.O=C(O)C(F)(F)F.O=C(O)C(F)(F)F` ? 10.00

* * *

SYSTEM NAME: Histamine H3 receptor (Homo sapiens, UniProt Q9Y5N1)
Sequence (Q9Y5N1 whole entry): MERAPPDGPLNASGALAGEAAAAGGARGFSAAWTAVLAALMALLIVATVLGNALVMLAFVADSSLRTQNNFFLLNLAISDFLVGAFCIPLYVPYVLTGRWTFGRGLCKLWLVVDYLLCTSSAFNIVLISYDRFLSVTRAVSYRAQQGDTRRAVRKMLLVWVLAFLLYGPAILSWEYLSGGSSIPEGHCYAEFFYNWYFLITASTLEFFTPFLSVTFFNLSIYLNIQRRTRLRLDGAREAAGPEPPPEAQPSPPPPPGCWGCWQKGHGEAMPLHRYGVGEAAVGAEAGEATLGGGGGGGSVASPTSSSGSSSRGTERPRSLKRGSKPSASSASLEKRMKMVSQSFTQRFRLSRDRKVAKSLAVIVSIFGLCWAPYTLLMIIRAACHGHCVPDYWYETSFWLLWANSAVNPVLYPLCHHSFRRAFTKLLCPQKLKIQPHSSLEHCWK
EXPERIMENTAL DETAILS: Displacement of [3H]UR-PI294 from human histamine H3 receptor stably expressed in baculovirus infected Sf9 cell membrane co-expressing G-alphai2 and G-beta1gamma2 incubated for 60 mins by scintillation counting analysis
Format: cell membranes
For each of the compounds below, state its Ki.
Answers are plain numbers, in µM.

1) Cc1nc(N)sc1-c1ccc(N/C(N)=N/C(=O)NC2CCCCC2)cc1: 12.3

Turning to the following compound.
Lab note: need Ki with Histamine H3 receptor (Homo sapiens, UniProt Q9Y5N1) for entry CCCCCNC(=O)/N=C(\N)NCC1CCc2nc(N)sc2C1.O=C(O)C(F)(F)F.O=C(O)C(F)(F)F (stereo not given) , please look it up. 6.61

* * *

Kindly state pKi for each of the entries shown.
SYSTEM NAME: Muscarinic acetylcholine receptor M5 (Homo sapiens)
Sequence (P08912 whole entry): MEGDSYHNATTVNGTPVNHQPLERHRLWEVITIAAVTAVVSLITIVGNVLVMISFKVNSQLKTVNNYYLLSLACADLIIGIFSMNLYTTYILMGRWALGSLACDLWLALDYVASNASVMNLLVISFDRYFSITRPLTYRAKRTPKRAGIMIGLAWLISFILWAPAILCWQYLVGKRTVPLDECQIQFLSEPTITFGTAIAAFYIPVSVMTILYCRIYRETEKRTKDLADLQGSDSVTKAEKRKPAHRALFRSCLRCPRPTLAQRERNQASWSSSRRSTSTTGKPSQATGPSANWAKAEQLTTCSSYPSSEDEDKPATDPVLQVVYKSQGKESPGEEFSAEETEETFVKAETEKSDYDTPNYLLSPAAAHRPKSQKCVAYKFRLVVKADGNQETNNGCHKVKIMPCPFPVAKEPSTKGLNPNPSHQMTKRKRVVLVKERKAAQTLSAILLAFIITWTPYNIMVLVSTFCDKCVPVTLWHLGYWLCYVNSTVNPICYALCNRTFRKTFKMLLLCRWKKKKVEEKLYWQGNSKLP
EXPERIMENTAL DETAILS: Displacement of [3H]N-methylscopolamine from human muscarinic acetylcholine M5 receptor stably expressed in CHO cells by radioligand competition binding based analysis
Type: cell-based

# annotated cases, reported pKi shown
1. C[C@@H](NC(=O)/N=C(\N)NCCCc1ncn[nH]1)c1ccccc1: < 5
2. N/C(=N\C(=O)NCc1ccccc1)NCCCc1nnc(N)s1: > 5
3. CCCCCNC(=O)/N=C(\N)NCCCc1nnc(N)s1.O=C(O)C(F)(F)F.O=C(O)C(F)(F)F: > 5

Shifting focus to the molecule that follows.
Return reported pKi; argument: `CCCCCNC(=O)/N=C(\N)NCCCc1sc(N)nc1C` > 5
